Attribute: ELISA OD450 @ 1 ug/ml
tested target: T1, His-tagged cynomolgus monkey B7-H3 (cynomolgus monkey)
T1 chain: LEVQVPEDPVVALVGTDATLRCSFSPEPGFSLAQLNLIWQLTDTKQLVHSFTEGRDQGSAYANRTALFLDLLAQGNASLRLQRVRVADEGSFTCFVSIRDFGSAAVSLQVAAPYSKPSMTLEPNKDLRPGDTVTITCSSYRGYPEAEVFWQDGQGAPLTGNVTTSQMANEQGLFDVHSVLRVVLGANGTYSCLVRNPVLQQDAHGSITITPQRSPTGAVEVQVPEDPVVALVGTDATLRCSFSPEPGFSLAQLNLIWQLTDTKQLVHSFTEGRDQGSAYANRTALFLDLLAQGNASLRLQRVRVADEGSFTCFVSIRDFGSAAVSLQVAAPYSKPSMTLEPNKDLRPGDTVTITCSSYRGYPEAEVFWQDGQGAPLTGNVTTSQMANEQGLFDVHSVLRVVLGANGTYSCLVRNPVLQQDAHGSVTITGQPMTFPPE
experimental protocol: ELISA, coated His-tagged antigen, scFv-Fc 1 ug/ml
Write down the numeric answer in OD450 and omit the unit.

Here's what some known entries look like.
40579p1.H11 (scFv, V domains shown, Tested as scFv-Fc (Expi293 supernatant)) VH: EVQLLESGGGLVQPGGSLRLSCAASGFTFDDYGMSWVRQAPGKGLEWVSAIRSKASSYATYYADSVKGRFTVSRDNSENTLYLQMNSLRAEDTAVYYCAKHRSNYYFMDVWGQGTTVTVSS VL: EIVLTQSPGTLSLSPGERATLSCRASQSVGSDLAWYQQRPGQAPRLLIYAASSRATDIPDRFSGSGSGTDFTLTISSLQSEDFAVYYCQQYYSWPPLTFGGGTKVEIK
0.769
40633p1.2.E11 (scFv, V domains shown, Tested as scFv-Fc (Expi293 supernatant)) VH: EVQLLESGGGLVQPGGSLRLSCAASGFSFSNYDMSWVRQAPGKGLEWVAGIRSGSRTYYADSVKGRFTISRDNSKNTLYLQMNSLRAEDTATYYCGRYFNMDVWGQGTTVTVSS VL: QSVLTQPPSASGTPGQRVTISCSGSTFNIGTNLVHWYQQLPGTAPKLLIYLTDRRPPGVPDRFSGSKSGTSASLAISGLQSEDEANYYCATWDDSLNSFLFGGGTKLTVL
2.14
40511p1.1.G1 (scFv, V domains shown, Tested as scFv-Fc (Expi293 supernatant)) VH: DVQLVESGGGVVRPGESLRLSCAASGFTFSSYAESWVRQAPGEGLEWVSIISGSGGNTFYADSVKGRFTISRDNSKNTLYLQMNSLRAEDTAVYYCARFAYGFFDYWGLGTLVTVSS VL: EIVLTQSPGTLSVSPGEGATLSCRASQTVGSKLAWYQQKPGQPPSLLIYDASTRATGIPDRFSGSGSGTDFTLTISSLQSEDFAVYYCQQYRNWPPLTFGGGTKVEIK
2.28

Form: binder = 40633p1.2.D11 (scFv, V domains shown, Tested as scFv-Fc (Expi293 supernatant)) VH: EVQLESGGGLVQPGGSLRLSCAASGFTVSYYGMSWVRQAPGKGLEWVSAIKQDGSEKYYADSVKGRFTISRDNSKNTLYLQMNSLRAEDTAVYYCARHWNDYSNAMNVWGQGTTVTVSS VL: QSVLTQPPSASGTPGQRVTISCSGSTSNIAIDFVNWYQQLPGTAPKLLIYTIDQRPSGVPDRFSGSKSGTSASLAISGLQSEDEAVYYCASWDASLNGWVFGRGTKLTVL ; ELISA OD450 @ 1 ug/ml = 1.95

Hello, the source for this data is patent US20260008852A1, in case you need it.
